Tested on: cells
PROCEDURE_TEXT: Photobleaching in cells
Assay type: cell-based
ASSAY_SETUP: Table 4
OBSERVABLE: Cellular properties: photobleaching

> print(dat)
                                 cpd.smiles  target.or.test.system      result
1        Cc1cc2cc3cc(C)c(N)cc3[n+](C)c2cc1N                  cells  very rapid
2    CN(C)c1ccc2cc3ccc(N(C)C)cc3[n+](C)c2c1                  cells  very rapid
3  Nc1c2ccccc2[n+](CCCS(=O)(=O)[O-])c2ccccc12                  cells       rapid
4  [O-]c1nc2c(N[C@@H]3O[C@H](CO)[C@@H](O)[C@H]3O)ncnc2[n+]2ccccc12                  cells        slow

====

PROCEDURE_TEXT: Fluorescence spectra / optical properties
Assay type: physicochemical
Set-up: key: ++++: very bright; +++: bright; ++: moderate brightness; +: weak
ASSAY_SETUP: Table 4
OBSERVABLE: Brightness

> print(dat)
                                   compound  result
1  [O-]c1nc2c(N[C@@H]3O[C@H](CO)[C@@H](O)[C@H]3O)ncnc2[n+]2ccccc12     +++
2  Nc1c2ccccc2[n+](CCCS(=O)(=O)[O-])c2ccccc12     +++
3  O=c1ccc2nc3ccc(O)cc3oc-2c1 [VIII, resorufin, reference compound]     +++
4        Cc1cc2cc3cc(C)c(N)cc3[n+](C)c2cc1N    ++++
5            Nc1ncnc2c1nc([O-])c1cccc[n+]12     +++
6  Nc1ccc2nc3ccc(N)cc3[n+](-c3ccccc3)c2c1 [XIII, phenosafranine, reference compound]      ++
7    CN(C)c1ccc2cc3ccc(N(C)C)cc3[n+](C)c2c1    ++++
8  N=c1ccc2c(-c3ccccc3C(=O)O)c3ccc(N)cc3oc-2c1 [III, rhodamine-110, reference compound]    ++++

query: Give me measured Brightness, please, for this compound: `C[n+]1c(-c2ccccc2)ccc2cc3ccc(-c4ccccc4)nc3cc21`
result: +++

====

PROCEDURE_TEXT: Fluorescence spectra / optical properties
Format: physicochemical
ASSAY_SETUP: Table 4
Protocol: Computations. In vitro fluorescence quenching studies were carried out at peak excitation and emission wavelengths. […] Fluorescence intensities in the absence (Fo) and presence (F) of quencher anion ([Q]) were measured to give the Stem-Volmer constant (Kq) as defined by: Fluorescence spectra reveal that LZQ and LMQ have broad excitation and emission peaks with maxima at 424 and 528 nm, respectively. […] In water (or saline), LZQ fluorescence was quenched by I^- with a Stem-Volmer constant of 60 M^-1. […]
OBSERVABLE: λex (excitation wavelength) (nm)

> print(dat)
                                   compound  value.unit  quantitative.readout
1  N=c1ccc2c(-c3ccccc3C(=O)O)c3ccc(N)cc3oc-2c1 [III, rhodamine-110, reference compound]          nm                   496
2    CN(C)c1ccc2cc3ccc(N(C)C)cc3[n+](C)c2c1          nm                   440
3        Cc1cc2cc3cc(C)c(N)cc3[n+](C)c2cc1N          nm                   440
4  Nc1c2ccccc2[n+](CCCS(=O)(=O)[O-])c2ccccc12          nm                   422
